Please provide measured inhibition of growth at 50 µM for the entries that follow.
Test system: MCF7
Assay: Cytotoxicity against human MCF7 cells at 50 uM after 48 hrs by SRB assay
Format: functional
Conditions: MCF7, 48 h, read-out: GI
Expressed in %, but write only the number.

Entry `C=C(C)[C@@H]1CC[C@]2(C(=O)O)CC[C@]3(C)[C@H](CC[C@@H]4[C@@]5(C)CC[C@H](OCc6cn(-c7cccc8c(O)cccc78)nn6)C(C)(C)[C@@H]5CC[C@]43C)[C@@H]12` , system MCF7: what inhibition of growth at 50 µM was measured?
82

Repeat with C=C(C)[C@@H]1CC[C@]2(C(=O)O)CC[C@]3(C)[C@H](CC[C@@H]4[C@@]5(C)CC[C@H](OCc6cn(C7O[C@H](COC(C)=O)[C@H](OC(C)=O)[C@H](OC(C)=O)[C@H]7OC(C)=O)nn6)C(C)(C)[C@@H]5CC[C@]43C)[C@@H]12 (some centres undefined)
52

Repeat with `C=C(C)[C@@H]1CC[C@]2(C(=O)O)CC[C@]3(C)[C@H](CC[C@@H]4[C@@]5(C)CC[C@H](OCc6cn(-c7cc(I)ccc7C)nn6)C(C)(C)[C@@H]5CC[C@]43C)[C@@H]12`
74

Repeat with `C=C(C)[C@@H]1CC[C@]2(C(=O)O)CC[C@]3(C)[C@H](CC[C@@H]4[C@@]5(C)CC[C@H](OCc6cn(-c7ccc(Cl)cc7)nn6)C(C)(C)[C@@H]5CC[C@]43C)[C@@H]12`
80

====

Test system: DU-145
Experiment: Cytotoxicity against human DU145 cells at 50 uM after 48 hrs by SRB assay
Format: functional
Settings: DU-145, 48 h, read-out: GI
Please provide measured inhibition of growth at 50 µM for the entries that follow.
Expressed in %, but write only the number.

Any idea what inhibition of growth at 50 µM was measured for `C=C(C)[C@@H]1CC[C@]2(C(=O)O)CC[C@]3(C)[C@H](CC[C@@H]4[C@@]5(C)CC[C@H](OCc6cn(-c7ccc([N+](=O)[O-])cc7)nn6)C(C)(C)[C@@H]5CC[C@]43C)[C@@H]12` ?
72

Repeat with `C=C(C)[C@@H]1CC[C@]2(C(=O)O)CC[C@]3(C)[C@H](CC[C@@H]4[C@@]5(C)CC[C@H](OCc6cn(-c7cccc(OC)c7)nn6)C(C)(C)[C@@H]5CC[C@]43C)[C@@H]12`
30

Repeat with C=C(C)[C@@H]1CC[C@]2(C(=O)O)CC[C@]3(C)[C@H](CC[C@@H]4[C@@]5(C)CC[C@H](OCc6cn(C7O[C@H](COC(C)=O)[C@H](OC(C)=O)[C@H](OC(C)=O)[C@H]7OC(C)=O)nn6)C(C)(C)[C@@H]5CC[C@]43C)[C@@H]12 (stereo not given in full)
36

Repeat with `C=C(C)[C@@H]1CC[C@]2(C(=O)O)CC[C@]3(C)[C@H](CC[C@@H]4[C@@]5(C)CC[C@H](O)C(C)(C)[C@@H]5CC[C@]43C)[C@@H]12`
84

Repeat with `C=C(C)[C@@H]1CC[C@]2(C(=O)O)CC[C@]3(C)[C@H](CC[C@@H]4[C@@]5(C)CC[C@H](OCc6cn(-c7cccc(CO)c7)nn6)C(C)(C)[C@@H]5CC[C@]43C)[C@@H]12`
65

Repeat with `C=C(C)[C@@H]1CC[C@]2(C(=O)O)CC[C@]3(C)[C@H](CC[C@@H]4[C@@]5(C)CC[C@H](OCc6cn(-c7ccc(C(=O)c8ccccc8)cc7)nn6)C(C)(C)[C@@H]5CC[C@]43C)[C@@H]12`
50

Repeat with `C=C(C)[C@@H]1CC[C@]2(C(=O)O)CC[C@]3(C)[C@H](CC[C@@H]4[C@@]5(C)CC[C@H](OCc6cn(-c7cccc(I)c7)nn6)C(C)(C)[C@@H]5CC[C@]43C)[C@@H]12`
62

Repeat with `C=C(C)[C@@H]1CC[C@]2(C(=O)O)CC[C@]3(C)[C@H](CC[C@@H]4[C@@]5(C)CC[C@H](OCc6cn(-c7ccc(C#N)cc7)nn6)C(C)(C)[C@@H]5CC[C@]43C)[C@@H]12`
20

Repeat with `C=C(C)[C@@H]1CC[C@]2(C(=O)O)CC[C@]3(C)[C@H](CC[C@@H]4[C@@]5(C)CC[C@H](OCc6cn(-c7ccccc7CO)nn6)C(C)(C)[C@@H]5CC[C@]43C)[C@@H]12`
65

Repeat with `C=C(C)[C@@H]1CC[C@]2(C(=O)O)CC[C@]3(C)[C@H](CC[C@@H]4[C@@]5(C)CC[C@H](OCc6cn(-c7ccc(OC)cc7)nn6)C(C)(C)[C@@H]5CC[C@]43C)[C@@H]12`
53
